# protocol details: NCI Yeast Anticancer Drug Screen. Data for the cln2 rad14 strain (AID 165);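 further: 0% = growth equal to vehicle treated cultures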
# experimental conditions: S. cerevisiae cln2 rad14 strain, at 50.0 µM, hits give high values
About 79,000 compounds went through this panel and 15% of them were active in at least one assay; those are over-represented in the sample as a whole. Calls of active or inactive are those of the source. No stated cut-off is given here; in the data, active means growth inhibition above about 70%; inactive means the rest.
Recorded growth inhibition values for a group of molecules are listed next.
endpoint label: growth inhibition

molecule	experimental value
C1CC2(CC3(C1)SCCS3)SCCS2	-12.3% (inactive)
Nc1ccccc1OCC(=O)Nc1c(N)ncnc1N	2.95% (inactive)
Clc1ccc(C(=C(c2ccc(Cl)cc2)c2ccc(Cl)cc2)c2ccc(Cl)cc2)cc1	-3.35% (inactive)
Nc1c(-c2ncc[nH]2)ncn1CC(O)C(O)C(O)CO (centres undefined)	22.9% (inactive)
O=C(OCCN1CCOCC1)C1C[C@@H](O)CN1C(=O)c1ccc2c(c1)OCO2 (some centres undefined)	1.9% (inactive)
CC1=C(C)C(=O)OC1	6% (inactive)
CCOC(=O)/C(=C\c1ccc(N(C)C)cc1)S(=O)(=O)C(F)(F)C(F)(F)C(F)(F)C(F)(F)F	-9.7% (inactive)
Cc1ccc(S(=O)(=O)OC/C(=C(/c2ccccc2)c2ccc(Cl)cc2)c2ccccc2)cc1	87.3% (active)
CC(CC[C@@H](O)C(C)(C)O)C1[C@@H](O)CC2(C)C3CC(O)C4C(C)(C)[C@@H](OC5OC(CO)C(O)C(O)C5O)CC[C@@]45C[C@@]35CC[C@]12C (some centres undefined)	-30.2% (inactive)
CC(C)N(C(=O)C12C3C4C5C3C1(C#N)C5C42)C(C)C (centres undefined)	5.95% (inactive)
N#CCCc1ccnc2ccccc12	-43% (inactive)
OC1C(O)C2CC1C1C2C2(Cl)CC1(Cl)C(Cl)=C2Cl (centres undefined)	-1.35% (inactive)
O=C([O-])c1cc(I)cc(I)c1[OH2+].O=C([O-])c1cc(I)cc(I)c1[OH2+].[Mn+2]	-23.7% (inactive)
CN(CCC(=O)O)S(=O)(=O)c1ccccc1	-9.1% (inactive)
